Target: Human Met (Homo sapiens)
Construct: Human MET (residues 956-1390)
Sequence (P08581 974-1390 limits assumed): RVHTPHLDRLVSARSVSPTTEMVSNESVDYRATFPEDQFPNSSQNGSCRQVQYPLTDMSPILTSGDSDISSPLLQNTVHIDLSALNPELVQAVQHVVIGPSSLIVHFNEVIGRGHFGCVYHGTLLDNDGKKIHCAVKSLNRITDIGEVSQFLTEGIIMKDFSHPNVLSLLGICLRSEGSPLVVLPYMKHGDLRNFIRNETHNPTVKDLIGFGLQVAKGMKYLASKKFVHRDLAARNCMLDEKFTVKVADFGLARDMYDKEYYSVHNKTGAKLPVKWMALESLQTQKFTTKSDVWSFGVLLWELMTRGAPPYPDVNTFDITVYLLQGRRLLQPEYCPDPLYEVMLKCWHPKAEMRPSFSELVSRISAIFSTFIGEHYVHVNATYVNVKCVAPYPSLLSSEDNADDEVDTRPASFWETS
Assay: Human Met kinase assay (33P radiometric / HTRF KinEase)
Details: protocols of Examples D-1 and/or D-2; read-out: c-Met IC50
pIC50: −log10 of the molar value.
endpoint.label: pIC50

**Q:** Please give the measured pIC50 for this compound: COc1cc2nccc(Oc3ccc(NC(=O)c4c(C)n(C)c(C)c(N5CCOCC5)c4=O)cc3F)c2nc1OC
**A:** < 6.52

**Q:** Using the record for COc1cc2nccc(Oc3ccc(NC(=O)c4cnc(C)c(C5=CCCCC5)c4O)cc3F)c2cc1OC , report its pIC50.
**A:** ≥ 7.00

**Q:** Given the compound COc1cc2nccc(Oc3ccc(NC(=O)c4c5n(c(C)c(C6=CCCCC6)c4=O)CCOC5)cc3F)c2nc1OC , what is its reported pIC50?
**A:** ≥ 7.00

**Q:** Field request: pIC50 | item: COc1cnc2c(Oc3ccc(NC(=O)c4cnc(C)c(C5=CCCCC5)c4O)cc3F)ccnc2c1
**A:** ≥ 7.00

###

Recorded pIC50 values for a group of compounds are listed next.
Target: Human Mer (Homo sapiens, UniProt Q12866)
Construct: Human Mer (residues R557-E882 with H628Q and R794A, 0.7 nM)
Sequence (Q12866 557-882 limits assumed): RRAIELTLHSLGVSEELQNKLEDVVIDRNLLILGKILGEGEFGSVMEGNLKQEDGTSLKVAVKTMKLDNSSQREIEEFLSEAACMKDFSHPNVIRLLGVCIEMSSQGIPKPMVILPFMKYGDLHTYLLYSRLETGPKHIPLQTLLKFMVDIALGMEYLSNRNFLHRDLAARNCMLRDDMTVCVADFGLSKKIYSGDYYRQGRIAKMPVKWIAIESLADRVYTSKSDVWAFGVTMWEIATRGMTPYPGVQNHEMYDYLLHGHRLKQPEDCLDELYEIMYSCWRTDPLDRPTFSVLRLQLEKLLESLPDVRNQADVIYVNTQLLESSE
Assay: Human Mer kinase assay (33P radiometric / HTRF KinEase)
Conditions: protocols of Examples C-1 and/or C-2
pIC50: −log10 of the molar value. Where a name gives a salt, the structure may show the parent alone.

Some compounds with known pIC50 results, for comparison:
COc1cc2nccc(Oc3ccc(NC(=O)c4c(C)nc(C)c(C(=O)NC(C)C)c4O)cc3F)c2nc1OC    ≥ 7.00
COCCOc1cc2nccc(Oc3ccc(NC(=O)c4c(C)n(C)c(C)c(C5=CCCC5)c4=O)cc3F)c2nc1OC    ≥ 7.00
COCCOc1cc2nccc(Oc3ccc(NC(=O)c4c(C)nc(C)c(OC)c4O)cc3F)c2nc1OC    < 6.52
COc1cc2nccc(Oc3ccc(NC(=O)c4c5n(c(C)c(C6=CCCCC6)c4=O)CCOC5)cc3F)c2nc1OC    ≥ 7.00
COc1cc2nccc(Oc3ccc(NC(=O)c4c(C)n(C)c(C)c(C#N)c4=O)cc3)c2nc1OC    < 6.52
COc1cc2nccc(Oc3ccc(NC(=O)c4c(C)nc(C)c(C(C)C)c4O)cc3)c2nc1OC    ≥ 7.00
COc1cc2nccc(Oc3ccc(NC(=O)c4cn(C)c(C)c(C5=CCCC5)c4=O)cc3F)c2nc1OC    ≥ 7.00
COc1cc2nccc(Oc3ccc(NC(=O)c4c(C)n(C)c(C)c(C(C)C)c4=O)cc3)c2nc1OC    ≥ 7.00
COc1cc2nccc(Oc3ccc(NC(=O)c4c5n(cc(C6=CCCCC6)c4=O)CCOC5)cc3)c2nc1OC    ≥ 7.00
COc1cc2nccc(Oc3ccc(NC(=O)c4cnc(C)c(C5=CCCCC5)c4O)cc3F)c2cc1OC    ≥ 7.00

**Q:** Could you tell me which pIC50 is on file for CCc1c(Br)c(=O)c(C(=O)Nc2cc(F)c(Oc3ccnc4cc(OC)c(OC)nc34)cc2F)cn1C ?
**A:** ≥ 7.00

**Q:** So what's the measured pIC50 for this one? COc1cnc2c(Oc3ccc(NC(=O)c4c(C)n(C)c(C)c(C#N)c4=O)cc3F)ccnc2c1
**A:** < 6.52

**Q:** Give its pIC50 value. Item: COc1cc2nccc(Oc3cc(F)c(NC(=O)c4c(C)nc(C)c(OC)c4O)cc3F)c2nc1OC
**A:** < 6.52

**Q:** Field request: pIC50 | item: COCCOc1cc2nccc(Oc3ccc(NC(=O)c4c(O)c(C5=CCOCC5)c(C)[n+](C)c4C)cc3F)c2nc1OC
**A:** ≥ 7.00

**Q:** Consider the compound COc1cc2nccc(Oc3ccc(NC(=O)c4c5n(c(C)c(C6=CCCCC6)c4=O)CCOC5)cc3)c2nc1OC and give its measured pIC50.
**A:** ≥ 7.00

**Q:** So what's the measured pIC50 for this one? COc1cc2nccc(Oc3ccc(NC(=O)c4c(C)nc(C)c(OC)c4O)cc3F)c2nc1OC
**A:** ≥ 7.00

**Q:** Need pIC50, item COc1cc2nccc(Oc3ccc(NC(=O)c4cnc(C)c(/C=C/CC(C)C)c4O)cc3F)c2nc1OC
**A:** ≥ 7.00

**Q:** Which pIC50 value is on record for COc1cnc2c(Oc3ccc(NC(=O)c4cn(C)c(C)c(C5=CCOCC5)c4=O)cc3F)ccnc2c1 ?
**A:** ≥ 7.00

**Q:** pIC50 lookup needed for COc1cc2nccc(Oc3ccc(NC(=O)c4c5n(cc(C6=CCOCC6)c4=O)CCOC5)cc3)c2nc1OC , thanks.
**A:** ≥ 7.00

**Q:** Recorded pIC50 for COCCOc1cc2nccc(Oc3ccc(NC(=O)c4cnc(C)c(/C=C/C(C)(C)C)c4O)cc3F)c2nc1OC , please?
**A:** ≥ 7.00

**Q:** Can you look up the measured pIC50 of COc1cc2nccc(Oc3ccc(NC(=O)c4c(C)n(C)c(C)c(C(C)C)c4=O)cc3F)c2nc1OC for me?
**A:** ≥ 7.00

**Q:** Query: pIC50; subject: COc1cc2nccc(Oc3ccc(NC(=O)c4c(C)nc(C)c(OC)c4O)cc3)c2nc1OC
**A:** < 6.52

**Q:** Returns the measured pIC50 for the input compound. Input: COc1cc2nccc(Oc3ccc(NC(=O)c4c(C)nc(C)c(C5=CCCC5)c4O)cc3F)c2nc1OC [Compound 1-2, hydrochloride]
**A:** ≥ 7.00
